Tested on: 966289-007-R4-J1-PDC complex spheroid viability;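 also: spheroids exposed to agents for one week before readout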
RUN_DESCRIPTION: Anticancer human tumor 966289-007-R4-J1-PDC patient-derived pancreatic adenocarcinoma cell line growth inhibition [RAS]
PARTICULARS: curve of first compound; second compound 0.0949 µM
PROPERTY: IC50 (nM)

MOLECULE	UNIT_ABBREV	RESULT
CCC(CC)c1cc(NC2CCC(N)C2)n2nccc2n1 (stereo not given) + CCn1c(-c2cccnc2C(C)OC)c2c3cc(ccc31)N1CCOC(CC(NC(=O)C(C(C)C)N(C)C(=O)C3(F)CCN(C(=O)C#CC(C)(C)N(C)C)CC3)C(=O)N3CCCC(N3)C(=O)OCC(C)(C)C2)C1	nM	764
CC(C)NCC(C(=O)N1CCN(c2ncnc3c2C(C)CC3O)CC1)c1ccc(Cl)cc1 (stereo not given) + CCn1c(-c2cccnc2C(C)OC)c2c3cc(ccc31)N1CCOC(CC(NC(=O)C(C(C)C)N(C)C(=O)C3(F)CCN(C(=O)C#CC(C)(C)N(C)C)CC3)C(=O)N3CCCC(N3)C(=O)OCC(C)(C)C2)C1	nM	6640
CC1(O)CCCC1n1c(=O)c(C(F)F)cc2cnc(NC3CCN(S(C)(=O)=O)CC3)nc21 (stereo not given) + CCn1c(-c2cccnc2C(C)OC)c2c3cc(ccc31)N1CCOC(CC(NC(=O)C(C(C)C)N(C)C(=O)C3(F)CCN(C(=O)C#CC(C)(C)N(C)C)CC3)C(=O)N3CCCC(N3)C(=O)OCC(C)(C)C2)C1	nM	106

(I) CCC(CC)c1cc(NC2CCC(N)C2)n2nccc2n1 (stereo not given) + CCn1c(-c2cc(N3CCN(C)CC3)cnc2C(C)OC)c2c3cc(ccc31)-c1csc(n1)CC(NC(=O)C1CC1C)C(=O)N1CCCC(N1)C(=O)OCC(C)(C)C2
(II) CCc1c2c(nc3ccc(O)cc13)-c1cc3c(c(=O)n1C2)COC(=O)[C@]3(O)CC + CCn1c(-c2cccnc2C(C)OC)c2c3cc(ccc31)N1CCOC(CC(NC(=O)C(C(C)C)N(C)C(=O)C3(F)CCN(C(=O)C#CC(C)(C)N(C)C)CC3)C(=O)N3CCCC(N3)C(=O)OCC(C)(C)C2)C1
(III) CC(C)n1nc(-c2ccc3oc(N)nc3c2)c2c(N)ncnc21 + CCn1c(-c2cccnc2C(C)OC)c2c3cc(ccc31)N1CCOC(CC(NC(=O)C(C(C)C)N(C)C(=O)C3(F)CCN(C(=O)C#CC(C)(C)N(C)C)CC3)C(=O)N3CCCC(N3)C(=O)OCC(C)(C)C2)C1
(IV) CC1(C)CCC(Nc2ncc(C(F)(F)F)c(-c3c[nH]c4c(P(C)(C)=O)c(C#N)ccc34)n2)CN1 (stereo not given) + CCn1c(-c2cc(N3CCN(C)CC3)cnc2C(C)OC)c2c3cc(ccc31)-c1csc(n1)CC(NC(=O)C1CC1C)C(=O)N1CCCC(N1)C(=O)OCC(C)(C)C2
Query string: Hello, I need these entries ordered by IC50, highest reading first. Thanks! // rank by listing labels in the order requested
Result string: I, III, IV, II

Source: PubChem BioAssay AID2060897
